# glycan array binding signal (z-score) listing for each entry below
Molecular target: GalNAc(b1-4)GlcNAc(b1-2)Man
Test: glycan array binding signal (z-score within array); higher = stronger binding
Details: glycan notation: IUPAC condensed, linker removed
The sample as a whole holds a higher share of the strongest signals than the screen did.
Please give only the number in your answer, with no unit.

Binder | Test value
CFEM-SCL (Saccharomyces cerevisiae), O13547 (protein) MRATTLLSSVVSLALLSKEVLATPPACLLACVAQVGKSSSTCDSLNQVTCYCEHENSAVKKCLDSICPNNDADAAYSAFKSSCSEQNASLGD | -0.281
PpFlo1 (Pichia pastoris) (protein) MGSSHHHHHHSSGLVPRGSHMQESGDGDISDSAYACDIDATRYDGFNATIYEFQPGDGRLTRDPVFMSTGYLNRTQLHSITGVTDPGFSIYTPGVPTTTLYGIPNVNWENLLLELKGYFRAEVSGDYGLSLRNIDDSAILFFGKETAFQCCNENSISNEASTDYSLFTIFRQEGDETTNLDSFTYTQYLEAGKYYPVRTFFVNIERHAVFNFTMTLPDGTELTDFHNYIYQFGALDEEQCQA | -0.267
SP16663B-bot-321-25-321 (Bacteroides ovatus) (protein) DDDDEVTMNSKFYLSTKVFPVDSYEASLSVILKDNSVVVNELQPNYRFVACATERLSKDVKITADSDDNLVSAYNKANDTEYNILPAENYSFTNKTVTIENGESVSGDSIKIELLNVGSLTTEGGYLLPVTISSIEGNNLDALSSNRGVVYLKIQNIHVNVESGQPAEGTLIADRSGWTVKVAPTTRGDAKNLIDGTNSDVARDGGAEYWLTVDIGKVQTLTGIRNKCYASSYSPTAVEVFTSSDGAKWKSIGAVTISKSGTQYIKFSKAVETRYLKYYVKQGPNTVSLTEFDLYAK | 1.72
GSL-I (Griffonia simplicifolia) (protein) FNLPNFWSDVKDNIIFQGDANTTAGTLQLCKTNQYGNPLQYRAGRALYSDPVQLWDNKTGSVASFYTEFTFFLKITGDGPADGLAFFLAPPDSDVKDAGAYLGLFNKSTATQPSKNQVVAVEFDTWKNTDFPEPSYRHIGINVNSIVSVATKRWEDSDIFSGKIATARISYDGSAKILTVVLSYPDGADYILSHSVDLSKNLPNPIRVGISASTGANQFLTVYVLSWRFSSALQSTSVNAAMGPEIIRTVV | -0.143
LCA (Lens culinaris), P02870 (protein) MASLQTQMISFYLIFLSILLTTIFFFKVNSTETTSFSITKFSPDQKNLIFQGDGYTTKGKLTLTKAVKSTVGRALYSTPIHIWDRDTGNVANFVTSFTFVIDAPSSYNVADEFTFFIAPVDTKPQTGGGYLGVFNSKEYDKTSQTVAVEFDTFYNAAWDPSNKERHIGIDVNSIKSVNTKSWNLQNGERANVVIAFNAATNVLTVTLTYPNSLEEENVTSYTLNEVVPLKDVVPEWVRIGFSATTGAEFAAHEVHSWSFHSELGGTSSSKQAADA | -0.199
rCNL (Clitocybe nebularis), B2ZRS9 (protein) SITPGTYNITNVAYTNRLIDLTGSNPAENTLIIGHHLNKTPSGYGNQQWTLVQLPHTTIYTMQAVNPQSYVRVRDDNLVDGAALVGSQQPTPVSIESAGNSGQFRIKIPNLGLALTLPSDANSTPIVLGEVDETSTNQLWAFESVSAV | 6.09

Then there is this binder:
Form field: reported glycan array binding signal (z-score) of Ovorubin (Pomacea canaliculata), J7I2T6 (protein) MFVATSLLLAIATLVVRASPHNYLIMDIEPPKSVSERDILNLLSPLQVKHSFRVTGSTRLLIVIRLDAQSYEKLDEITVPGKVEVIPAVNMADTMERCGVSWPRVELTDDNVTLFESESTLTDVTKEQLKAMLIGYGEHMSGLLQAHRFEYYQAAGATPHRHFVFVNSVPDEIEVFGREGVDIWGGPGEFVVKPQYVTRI
-0.618
